Test system: patient-derived GBM neural stem cells (GNS)
assay protocol: Proliferation assay, dose-response series
Format: cell-based, human
assay setup: IC50 of BJ/IC50 of any NS or GNS with the lowest IC50; dose series 0.39–50 µM
experimental endpoint: selectivity toward GNS and NS compared with fibroblasts

>  <compound>
CCN(CC)CCOc1ccc(Cc2ccccc2)cc1

>  <data value>
more than 8 fold

$$$$
>  <compound>
CN1[C@@H]2CC[C@H]1C[C@@H](OC(=O)c1cc(Cl)cc(Cl)c1)C2

>  <data value>
more than 8 fold

$$$$
>  <compound>
Cc1c(C2CCN(CCc3ccccc3)CC2)noc1-c1ccc(Cl)cc1

>  <data value>
more than 8 fold

$$$$
>  <compound>
Cc1cc(C)cc(C(=O)OC2CC3CCC(C2)N3C)c1 (stereo not shown) [tropanyl 3,5-dimethylbenzoate]

>  <data value>
more than 8 fold

$$$$

###

Listed below: pIC50 values for each entry.
Tested on: patient-derived GBM neural stem cells (GNS)
assay protocol: Proliferation assay, dose-response series
Format: cell-based, human
assay setup: read-out: potency (IC50) toward GNS; panel of six GNS lines
pIC50: −log10 of the molar value.
experimental endpoint: pIC50

>  <compound>
Clc1ccc(N2CCN(Cc3c[nH]c4ncccc34)CC2)cc1

>  <data value>
5.21 to 5.51

$$$$
>  <compound>
Cc1c(C2CCN(CCc3ccccc3)CC2)noc1-c1ccc(Cl)cc1

>  <data value>
5.21 to 5.82

$$$$
>  <compound>
Cl.Cl.Fc1ccc(N2CCN(CCC3OCCc4ccccc43)CC2)cc1 (stereo not drawn) [PNU 96415E]

>  <data value>
5.20

$$$$
